Test: oxypurinol solubility with and without metformin
Assay type: physicochemical
Conditions: without metformin (starting value)
outcome.measure: solubility (µg/mL)
Give a bare numeral; the unit µg/mL is implied.

Respond only with solubility recorded for "O=c1[nH]c(=O)c2c[nH]nc2[nH]1"
200
